Measured combination Emax, listed per entry for reference.
- Test system: CTV-1 (T-Lymphoblastic Leukemia)
- assay method text: combination Emax (second highest fraction inhibited in the dose matrix, 72 h); higher = more inhibition; extreme values may be limits of the assay

{"columns": ["molecule", "combination Emax"],
 "data": [
  ["NC1(C(=O)N[C@@H](CCO)c2ccc(Cl)cc2)CCN(c2ncnc3[nH]ccc23)CC1 [Capivasertib] + Cn1cnc2c(F)c(Nc3ccc(Br)cc3Cl)c(C(=O)NOCCO)cc21 [Selumetinib] (first compound max 10 µM, 7x7, partner max 10 µM)", 0.852],
  ["COc1nnc2ccc(N3CCC(c4ccc(OCCN5CCN(C)C(=O)[C@H]5C)cc4)CC3)nn12 [AZD5153] + CN(CC[C@H](CSC1=CC=CC=C1)NC2=C(C=C(C=C2)S(=O)(=O)NC(=O)C3=CC=C(C=C3)N4CCC(CC4)[C@H](C5=CC=CC=C5C6=CC=C(C=C6)Cl)O)S(=O)(=O)C(F)(F)F)CCO [AZD4320] (first compound max 1 µM, 7x7, partner max 1 µM)", 0.933]
]}
